The measured values listed here are drawn from PubChem BioAssay (Tox21).

Assay: qHTS assay to identify small molecule antagonists of the peroxisome proliferator-activated receptor gamma (PPARg) signaling pathway - cell viability counter screen (AID 743194); also: nearly all actives have a fitted effect of over 55% in size
Details: PPARg-bla HEK293H viability, CellTiter-Glo luminescence, 17 h, co-treated with 50 nM rosiglitazone; series mostly up to 62.6 µM
Inconclusive results are not listed. The source made the active and inactive calls. Calls follow the shape of the dose curve; as a rule, active = well fitted cell-killing curve with a large enough effect in the repeat runs; inconclusive = weak or mixed curves, or effect the other way; inactive = no such curve, though single readings can be large or run the other way.
Labels: active, inactive

# Compound, Classification
records = [
    ("CCCCOCCOCCO", "inactive"),
    ("CCOC(=O)C(C#N)=C(c1ccccc1)c1ccccc1", "inactive"),
    ("CC1=CCC(C(C)(C)O)CC1 (stereo not drawn)", "inactive"),
    ("Brc1cc(Oc2cc(Br)c(Br)c(Br)c2Br)c(Br)c(Br)c1Br", "inactive"),
    ("CCOCCOCCO", "inactive"),
    ("Cc1cc2nc3c(=O)[nH]c(=O)nc-3n(C[C@H](O)[C@H](O)[C@H](O)CO)c2cc1C", "inactive"),
    ("CCC(C)OC(=O)c1ccc(O)cc1 (stereo not drawn)", "inactive"),
    ("Cc1ncc[nH]1", "inactive"),
    ("O=C(OCc1ccccc1)c1ccccc1O", "inactive"),
    ("Cc1cccc(C(=O)O)c1", "inactive"),
    ("Nc1ncnc2nc[nH]c12", "inactive"),
    ("CC(C)=CCC/C(C)=C\\CO", "inactive"),
    ("CC(CCC(=O)O)(c1ccc(O)cc1)c1ccc(O)cc1", "inactive"),
    ("Nc1ccccc1N", "inactive"),
    ("C[Si](C)(C)O[Si](C)(C)C", "inactive"),
    ("CCCCc1oc2ccccc2c1C(=O)c1cc(I)c(OCCN(CC)CC)c(I)c1", "active"),
    ("CC(C)=CCCC(C)CCO (stereo not drawn)", "inactive"),
    ("CN1C(C(=O)Nc2ccccn2)=C(O)c2ccccc2S1(=O)=O", "inactive"),
    ("Nc1ccc(Nc2ccccc2)cc1", "inactive"),
    ("CCCCCCCCCC(=O)OC", "inactive"),
    ("OC(CCl)CCl", "inactive"),
    ("CC(C(=O)O)c1cccc(C(=O)c2ccccc2)c1 (stereo not drawn)", "inactive"),
    ("CC(C)(C)NC(=O)[C@H]1CC[C@H]2[C@@H]3CC[C@H]4NC(=O)C=C[C@]4(C)[C@H]3CC[C@]12C", "inactive"),
    ("COC(=O)Nc1nc2ccc(S(=O)c3ccccc3)cc2[nH]1 (stereo not drawn)", "inactive"),
    ("Clc1nc(Cl)c(Cl)c(Cl)c1Cl", "inactive"),
    ("c1ccc2cc(Nc3ccc(Nc4ccc5ccccc5c4)cc3)ccc2c1", "inactive"),
    ("Cc1ccc2c(n1)Oc1ccc(C(C)C(=O)OCC(=O)N(C)C)cc1C2 (stereo not drawn)", "inactive"),
    ("CC(C)Oc1ccc2c(=O)c(-c3ccccc3)coc2c1", "inactive"),
]

###

Measured Target: Peroxisome proliferator-activated receptor gamma (Homo sapiens) (UniProt P37231)
Sequence (P37231 whole entry, looked up): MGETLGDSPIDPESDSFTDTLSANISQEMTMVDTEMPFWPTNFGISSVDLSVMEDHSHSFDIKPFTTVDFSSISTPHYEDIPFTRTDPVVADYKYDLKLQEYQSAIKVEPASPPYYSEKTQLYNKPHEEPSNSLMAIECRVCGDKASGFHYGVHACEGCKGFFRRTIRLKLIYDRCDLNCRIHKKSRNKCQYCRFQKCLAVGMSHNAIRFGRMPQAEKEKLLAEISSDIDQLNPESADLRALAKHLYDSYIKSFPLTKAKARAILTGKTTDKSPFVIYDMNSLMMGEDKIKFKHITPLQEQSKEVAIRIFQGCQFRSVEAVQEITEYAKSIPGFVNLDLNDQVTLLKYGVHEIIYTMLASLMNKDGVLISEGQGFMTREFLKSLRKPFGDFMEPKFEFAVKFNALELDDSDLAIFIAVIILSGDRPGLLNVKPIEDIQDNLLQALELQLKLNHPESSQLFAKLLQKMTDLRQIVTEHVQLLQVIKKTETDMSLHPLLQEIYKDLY
Assay: qHTS assay to identify small molecule agonists of the peroxisome proliferator-activated receptor gamma (PPARg) signaling pathway (AID 743094)
Details: HEK293H PPARg-UAS-bla, beta-lactamase FRET ratio, 17 h; series mostly up to 57 µM
Source text: U.S. Tox21 Program National Center for Advancing Translational Sciences [NCATS] NIH Chemical Genomics Center [NCGC] U.S. Environmental Protection Agency [EPA] National Institutes of Environmental Health Sciences [NIEHS] National Toxicology Program [NTP] U.S. Food and Drug Administration [FDA] […]
Results filed as inconclusive are left out. Calls of active or inactive are those of the source. Calls come from the whole dose curve; as a rule, active = well fitted activation curve with a large enough effect in the signal ratio in the repeat runs (not every such curve was filed as active); inconclusive = weak or mixed curves, or effect the other way; inactive = no such curve, though single readings can be large or run the other way; the % refers to the signal ratio.
Labels: active, inactive

# Molecule, Measured Target, Classification
measured = [
    ("CC(C)(C)NC(=O)[C@H]1CC[C@H]2[C@@H]3CC[C@H]4NC(=O)C=C[C@]4(C)[C@H]3CC[C@]12C", "Peroxisome proliferator-activated receptor gamma (Homo sapiens) (UniProt P37231)", "inactive"),
    ("CCCCC(CC)COP(=O)(OCC(CC)CCCC)OCC(CC)CCCC (stereo unspecified)", "Peroxisome proliferator-activated receptor gamma (Homo sapiens) (UniProt P37231)", "inactive"),
    ("CC(C)=CCC/C(C)=C\\CO", "Peroxisome proliferator-activated receptor gamma (Homo sapiens) (UniProt P37231)", "inactive"),
    ("CC(=O)C1(C)CC2=C(CCCC2(C)C)CC1C (stereo unspecified)", "Peroxisome proliferator-activated receptor gamma (Homo sapiens) (UniProt P37231)", "inactive"),
    ("CCCCC(CC)COC(=O)c1ccc(N(C)C)cc1 (stereo unspecified)", "Peroxisome proliferator-activated receptor gamma (Homo sapiens) (UniProt P37231)", "inactive"),
    ("CC(C(=O)O)c1cccc(C(=O)c2ccccc2)c1 (stereo unspecified)", "Peroxisome proliferator-activated receptor gamma (Homo sapiens) (UniProt P37231)", "inactive"),
    ("c1ccncc1", "Peroxisome proliferator-activated receptor gamma (Homo sapiens) (UniProt P37231)", "inactive"),
    ("Cn1cnc([N+](=O)[O-])c1Sc1ncnc2nc[nH]c12", "Peroxisome proliferator-activated receptor gamma (Homo sapiens) (UniProt P37231)", "inactive"),
    ("CCCCCCCCCC(=O)OC", "Peroxisome proliferator-activated receptor gamma (Homo sapiens) (UniProt P37231)", "inactive"),
    ("CCCCC(CC)COCC1CO1 (stereo unspecified)", "Peroxisome proliferator-activated receptor gamma (Homo sapiens) (UniProt P37231)", "inactive"),
    ("CN(C)CCN(Cc1cccs1)c1ccccn1", "Peroxisome proliferator-activated receptor gamma (Homo sapiens) (UniProt P37231)", "inactive"),
    ("CCC(C)c1ccccc1O (stereo unspecified)", "Peroxisome proliferator-activated receptor gamma (Homo sapiens) (UniProt P37231)", "inactive"),
    ("O=C1c2cccc(O)c2C(=O)c2c(O)cccc21", "Peroxisome proliferator-activated receptor gamma (Homo sapiens) (UniProt P37231)", "inactive"),
    ("Cc1cccc([N+](=O)[O-])c1C", "Peroxisome proliferator-activated receptor gamma (Homo sapiens) (UniProt P37231)", "inactive"),
    ("CCCc1c(OCCCCc2nn[nH]n2)ccc(C(C)=O)c1O", "Peroxisome proliferator-activated receptor gamma (Homo sapiens) (UniProt P37231)", "active"),
    ("CCCCOCCOCCO", "Peroxisome proliferator-activated receptor gamma (Homo sapiens) (UniProt P37231)", "inactive"),
    ("COc1ccc(C(=O)CC(=O)c2ccc(C(C)(C)C)cc2)cc1", "Peroxisome proliferator-activated receptor gamma (Homo sapiens) (UniProt P37231)", "inactive"),
    ("NC=O", "Peroxisome proliferator-activated receptor gamma (Homo sapiens) (UniProt P37231)", "inactive"),
    ("O=[N+]([O-])c1ccc2c(c1)Cc1ccccc1-2", "Peroxisome proliferator-activated receptor gamma (Homo sapiens) (UniProt P37231)", "inactive"),
    ("CC(C)OC=O", "Peroxisome proliferator-activated receptor gamma (Homo sapiens) (UniProt P37231)", "inactive"),
    ("COc1cccc2c1C(=O)c1c(O)c3c(c(O)c1C2=O)C[C@@](O)(C(=O)CO)C[C@@H]3O[C@H]1C[C@H](N)[C@H](O)[C@H](C)O1", "Peroxisome proliferator-activated receptor gamma (Homo sapiens) (UniProt P37231)", "inactive"),
    ("CC(CCC(=O)O)(c1ccc(O)cc1)c1ccc(O)cc1", "Peroxisome proliferator-activated receptor gamma (Homo sapiens) (UniProt P37231)", "inactive"),
    ("C[C@]12CC[C@H]3[C@@H](CCC4=CC(=O)CC[C@@]43C)[C@@H]1CC[C@@H]2C(=O)CO", "Peroxisome proliferator-activated receptor gamma (Homo sapiens) (UniProt P37231)", "inactive"),
    ("O=c1oc(=O)c2cc3c(=O)oc(=O)c3cc12", "Peroxisome proliferator-activated receptor gamma (Homo sapiens) (UniProt P37231)", "inactive"),
    ("Cc1cccc(C(=O)O)c1", "Peroxisome proliferator-activated receptor gamma (Homo sapiens) (UniProt P37231)", "inactive"),
    ("c1ccc2cc(Nc3ccc(Nc4ccc5ccccc5c4)cc3)ccc2c1", "Peroxisome proliferator-activated receptor gamma (Homo sapiens) (UniProt P37231)", "active"),
    ("CC(C)=CCCC(C)CCO (stereo unspecified)", "Peroxisome proliferator-activated receptor gamma (Homo sapiens) (UniProt P37231)", "inactive"),
    ("CCOCCOCCO", "Peroxisome proliferator-activated receptor gamma (Homo sapiens) (UniProt P37231)", "inactive"),
    ("Nc1ccc(Nc2ccccc2)cc1", "Peroxisome proliferator-activated receptor gamma (Homo sapiens) (UniProt P37231)", "inactive"),
    ("Cc1[nH]c(=O)c(C#N)cc1-c1ccncc1", "Peroxisome proliferator-activated receptor gamma (Homo sapiens) (UniProt P37231)", "inactive"),
    ("COc1ccccc1/C=C/C=O", "Peroxisome proliferator-activated receptor gamma (Homo sapiens) (UniProt P37231)", "inactive"),
    ("COC(=O)Nc1nc2ccc(S(=O)c3ccccc3)cc2[nH]1 (stereo unspecified)", "Peroxisome proliferator-activated receptor gamma (Homo sapiens) (UniProt P37231)", "inactive"),
    ("CN1C(C(=O)Nc2ccccn2)=C(O)c2ccccc2S1(=O)=O", "Peroxisome proliferator-activated receptor gamma (Homo sapiens) (UniProt P37231)", "inactive"),
    ("Brc1cc(Oc2cc(Br)c(Br)c(Br)c2Br)c(Br)c(Br)c1Br", "Peroxisome proliferator-activated receptor gamma (Homo sapiens) (UniProt P37231)", "inactive"),
    ("COC(=O)c1ccccc1", "Peroxisome proliferator-activated receptor gamma (Homo sapiens) (UniProt P37231)", "inactive"),
    ("Cc1c(OCC(F)(F)F)ccnc1CS(=O)c1nc2ccccc2[nH]1 (stereo unspecified)", "Peroxisome proliferator-activated receptor gamma (Homo sapiens) (UniProt P37231)", "inactive"),
    ("CC(=O)c1ccccn1", "Peroxisome proliferator-activated receptor gamma (Homo sapiens) (UniProt P37231)", "inactive"),
    ("Cc1ncc[nH]1", "Peroxisome proliferator-activated receptor gamma (Homo sapiens) (UniProt P37231)", "inactive"),
    ("CCOC(=O)C(C#N)=C(c1ccccc1)c1ccccc1", "Peroxisome proliferator-activated receptor gamma (Homo sapiens) (UniProt P37231)", "inactive"),
    ("CC(C)OB(OC(C)C)OC(C)C", "Peroxisome proliferator-activated receptor gamma (Homo sapiens) (UniProt P37231)", "inactive"),
    ("CC1=CCC(C(C)(C)O)CC1 (stereo unspecified)", "Peroxisome proliferator-activated receptor gamma (Homo sapiens) (UniProt P37231)", "inactive"),
    ("O=C(O)c1ccccc1Nc1cccc(C(F)(F)F)c1", "Peroxisome proliferator-activated receptor gamma (Homo sapiens) (UniProt P37231)", "inactive"),
    ("CCCCOCCOCCOCCO", "Peroxisome proliferator-activated receptor gamma (Homo sapiens) (UniProt P37231)", "inactive"),
    ("O=CCc1ccccc1", "Peroxisome proliferator-activated receptor gamma (Homo sapiens) (UniProt P37231)", "inactive"),
    ("OC1CCCCCCCCCCC1", "Peroxisome proliferator-activated receptor gamma (Homo sapiens) (UniProt P37231)", "inactive"),
    ("C#C[C@]1(O)CC[C@H]2[C@@H]3CCC4=Cc5oncc5C[C@]4(C)[C@H]3CC[C@@]21C", "Peroxisome proliferator-activated receptor gamma (Homo sapiens) (UniProt P37231)", "inactive"),
    ("COC(=O)CCC(=O)OC", "Peroxisome proliferator-activated receptor gamma (Homo sapiens) (UniProt P37231)", "inactive"),
    ("CC(C)Oc1ccc2c(=O)c(-c3ccccc3)coc2c1", "Peroxisome proliferator-activated receptor gamma (Homo sapiens) (UniProt P37231)", "inactive"),
    ("OCCO", "Peroxisome proliferator-activated receptor gamma (Homo sapiens) (UniProt P37231)", "inactive"),
    ("Cc1cccc(N(C)C(=S)Oc2ccc3ccccc3c2)c1", "Peroxisome proliferator-activated receptor gamma (Homo sapiens) (UniProt P37231)", "inactive"),
    ("C#C[C@]1(O)CC[C@H]2[C@@H]3CCc4cc(OC)ccc4[C@H]3CC[C@@]21C", "Peroxisome proliferator-activated receptor gamma (Homo sapiens) (UniProt P37231)", "inactive"),
]
